System: UCD52 (cells of a triple-negative basal-like breast cancer xenograft);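 also: PDX cells carrying CMV promoter-driven luciferase, viability read as total photon flux per second by IVIS imaging following D-luciferin, vehicle control 0.1% DMSO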
Experiment: cell viability (% of vehicle); higher = less cytotoxic
Settings: 10 µM; 72 h
Each entry falls into one class according to its cell viability; the ranges are Low (below 60), Mid (60 to below 100), High (100 or more)

* S=c1nc[nH]c2nc[nH]c12 | Mid
* CN(C)CCC=C1c2ccccc2Sc2ccc(Cl)cc21 | Low
* COc1cc(Nc2c(C#N)cnc3cc(OCCCN4CCN(C)CC4)c(OC)cc23)c(Cl)cc1Cl [Bosutinib (SKI-606)] | Low
* CCOC(=O)c1c(C)n(C)c2ccc(O)cc12 [Mecarbinate] | Mid
* CCOc1cc2ncc(C#N)c(Nc3ccc(F)c(Cl)c3)c2cc1NC(=O)C=CCN(C)C [Pelitinib (EKB-569)] | Low
* CC(C)(O/N=C(\C(=O)N[C@@H]1C(=O)N2C(C(=O)[O-])=C(C[n+]3ccccc3)CS[C@H]12)c1csc(N)n1)C(=O)O | High
* Cl.Clc1ccccc1CN1CCc2sccc2C1 [Ticlopidine HCl] | Mid
* Nc1cccc2c1C(=O)N(C1CCC(=O)NC1=O)C2=O (stereo not given) [Pomalidomide (CC-4047)] | High
* CCCC(CCC)C(=O)O | Mid
* C=CC[N+]1(C2CC3C4CCC5CC(O)C(N6CCOCC6)CC5(C)C4CCC3(C)C2OC(C)=O)CCCC1.[Br-] (stereo not given) [Rocuronium Bromide] | High
* CNC1C(OC2C(OC3C(O)C(O)C(N=C(N)N)C(O)C3N=C(N)N)OC(C)C2(O)C=O)OC(CO)C(O)C1O.CNC1C(OC2C(OC3C(O)C(O)C(N=C(N)N)C(O)C3N=C(N)N)OC(C)C2(O)C=O)OC(CO)C(O)C1O.O=S(=O)(O)O.O=S(=O)(O)O.O=S(=O)(O)O (stereo not given) [Streptomycin sulfate] | Mid
* Cl.O=c1n(CCCN2CCN(c3cccc(Cl)c3)CC2)nc2ccccn12 [Trazodone HCl] | Mid
